FYI, the data here is from paper PMC3277881.

- tested system: T1, full-length yeast Atg7 (yeast (budding yeast), UniProt P38862 1-630)
- T1 sequence (looked up): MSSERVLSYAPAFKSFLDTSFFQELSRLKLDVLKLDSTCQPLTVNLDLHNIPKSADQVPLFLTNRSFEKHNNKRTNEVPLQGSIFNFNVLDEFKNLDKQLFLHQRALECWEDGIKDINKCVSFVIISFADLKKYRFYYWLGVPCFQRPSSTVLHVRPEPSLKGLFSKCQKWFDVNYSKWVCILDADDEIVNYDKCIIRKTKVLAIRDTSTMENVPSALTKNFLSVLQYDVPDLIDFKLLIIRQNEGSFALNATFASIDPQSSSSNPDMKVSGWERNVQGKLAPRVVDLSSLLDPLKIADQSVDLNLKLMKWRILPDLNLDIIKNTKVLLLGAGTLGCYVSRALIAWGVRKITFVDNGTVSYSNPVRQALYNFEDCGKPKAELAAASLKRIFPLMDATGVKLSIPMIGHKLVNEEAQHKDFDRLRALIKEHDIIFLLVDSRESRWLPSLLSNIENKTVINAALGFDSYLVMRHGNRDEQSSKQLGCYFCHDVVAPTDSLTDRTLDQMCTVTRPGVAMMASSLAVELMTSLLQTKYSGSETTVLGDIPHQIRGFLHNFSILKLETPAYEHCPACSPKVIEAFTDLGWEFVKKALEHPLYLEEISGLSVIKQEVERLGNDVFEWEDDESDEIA
- method summary: ITC
pKd: −log10 of the molar value.
readout type: pKd

>>> obs_value("SIDDIDELIQDMEIKEE (peptide, UniProt P40344 128-144, looked up) [synthetic peptide encompassing Atg3 residues 128-144 (Atg3^FRpep)]")
5.23
